- Tested on: HNF4α mRNA
- procedure.text: HNF4α mRNA levels by quantitative PCR
- Format: cell-based
- details: FIG. 3
endpoint.label: HNF4α gene expression

[
  {
    "compound": "COc1cc(/C=C\\C(=O)NCCc2ccc(O)cc2)ccc1O [cis-feruloyltyramine]",
    "HNF4α gene expression": "inactive"
  },
  {
    "compound": "COc1cc(/C=C/C(=O)NCC(O)c2ccc(O)cc2)ccc1O (stereo not drawn) [N-trans-feruloyloctopamine]",
    "HNF4α gene expression": "inactive"
  },
  {
    "compound": "O=C(/C=C/c1ccc(O)cc1)NCCc1ccc(O)c(O)c1",
    "HNF4α gene expression": "inactive"
  },
  {
    "compound": "COc1cc(/C=C/C(=O)NCCc2ccc(O)cc2)ccc1O [N-trans-feruloyltyramine]",
    "HNF4α gene expression": "upregulated"
  },
  {
    "compound": "O=C(/C=C/c1ccc(O)c(O)c1)NCCc1ccc(O)cc1 [N-trans-caffeoyltyramine]",
    "HNF4α gene expression": "upregulated"
  }
]

I'd like to know its HNF4α gene expression. The compound in question is O=C(/C=C/c1ccc(O)cc1)NCC(O)c1ccc(O)cc1 (stereo not shown)
inactive

I'd like to know its HNF4α gene expression. The compound in question is O=C(/C=C/c1ccc(O)cc1)NCCc1ccc(O)cc1
upregulated

---

- procedure.text: Hepatic microsome stability assay, mouse
- Format: in vitro ADME
- details: liver microsomes, pH 7.4, 1 μM, read-out: Clearance Rate
endpoint.label: microsomal CLint at 1 μM (µL/min/mg)
I only need the number, in µL/min/mg, no unit after it.

I'd like to know its microsomal CLint at 1 μM. The compound in question is O=C(/C=C/c1ccc(O)c(O)c1)NCCc1ccc(O)cc1 [N-trans-caffeoyltyramine]
1760

---

- procedure.text: Hepatic microsome stability assay, rat
- Type: in vitro ADME
- details: liver microsomes, pH 7.4, 10 μM, read-out: Clearance Rate
endpoint.label: microsomal CLint at 10 μM (µL/min/mg)
I only need the number, in µL/min/mg, no unit after it.

I'd like to know its microsomal CLint at 10 μM. The molecule in question is O=C(/C=C/c1ccc(O)c(O)c1)NCCc1ccc(O)cc1 [N-trans-caffeoyltyramine]
30.9

---

- procedure.text: Hepatic microsome stability assay, mouse
- Type: in vitro ADME
- details: liver microsomes, pH 7.4, 1 μM
endpoint.label: half-life at 1 μM (s)
I only need the number, in s, no unit after it.

I'd like to know its half-life at 1 μM. The compound in question is O=C(/C=C/c1ccc(O)c(O)c1)NCCc1ccc(O)cc1 [N-trans-caffeoyltyramine]
48

---

- procedure.text: in vivo
- details: male, C57BL/6, mouse
endpoint.label: bioavailability

I'd like to know its bioavailability. The compound in question is O=C(/C=C/c1ccc(O)c(O)c1)NCCc1ccc(O)cc1 [N-trans-caffeoyltyramine]
~11%

---

- procedure.text: Hepatic microsome stability assay, mouse
- Assay type: in vitro ADME
- details: liver microsomes, pH 7.4, 10 μM
endpoint.label: half-life at 10 μM (min)
I only need the number, in min, no unit after it.

I'd like to know its half-life at 10 μM. The compound in question is O=C(/C=C/c1ccc(O)c(O)c1)NCCc1ccc(O)cc1 [N-trans-caffeoyltyramine]
6.9

---

- procedure.text: Hepatic microsome stability assay, rat
- Assay type: in vitro ADME
- details: liver microsomes, pH 7.4, 1 μM, read-out: Clearance Rate
endpoint.label: microsomal CLint at 1 μM
Record the result as number plus unit.

I'd like to know its microsomal CLint at 1 μM. The molecule in question is O=C(/C=C/c1ccc(O)c(O)c1)NCCc1ccc(O)cc1 [N-trans-caffeoyltyramine]
674 µL/min/mg

---

- procedure.text: Hepatic microsome stability assay, human
- Format: in vitro ADME
- details: liver microsomes, pH 7.4; human microsomes, 1 μM; read-out: Clearance Rate
endpoint.label: microsomal CLint at 1 μM (µL/min/mg)
I only need the number, in µL/min/mg, no unit after it.

I'd like to know its microsomal CLint at 1 μM. The molecule in question is O=C(/C=C/c1ccc(O)c(O)c1)NCCc1ccc(O)cc1 [N-trans-caffeoyltyramine]
17.9

---

- procedure.text: Hepatic microsome stability assay, mouse
- Format: in vitro ADME
- details: liver microsomes, pH 7.4, 10 μM, read-out: Clearance Rate
endpoint.label: microsomal CLint at 10 μM (µL/min/mg)
I only need the number, in µL/min/mg, no unit after it.

I'd like to know its microsomal CLint at 10 μM. The compound in question is O=C(/C=C/c1ccc(O)c(O)c1)NCCc1ccc(O)cc1 [N-trans-caffeoyltyramine]
200
